Source of measurements: ChEMBL document CHEMBL1143557

target_under_test: DNA topoisomerase 1 (Homo sapiens, UniProt P11387)
assay_summary: Topoisomerase I activity for single-strand breaks in the DNA substrate
Returns: string. Value is T if measured EC50 is below 200 nM, and F if it is greater than or equal to it.

{"columns": ["molecule", "target_under_test", "class_assignment"],
 "data": [
  ["NCC1OC(n2c3ccc(F)cc3c3c4c(c5c6cc(F)ccc6[nH]c5c32)C(=O)NC4=O)C(O)C(O)C1F (stereo not drawn)", "DNA topoisomerase 1 (Homo sapiens, UniProt P11387)", "T"],
  ["O=C1NC(=O)c2c1c1c3cc(F)ccc3[nH]c1c1c2c2cc(F)ccc2n1C1OC(CF)C(O)C(O)C1O (stereo in doubt; 10)", "DNA topoisomerase 1 (Homo sapiens, UniProt P11387)", "F"],
  ["NCC1OC(n2c3cc(F)c(F)cc3c3c4c(c5c6cc(F)c(F)cc6[nH]c5c32)C(=O)NC4=O)C(O)C(O)C1(F)F (stereo not drawn)", "DNA topoisomerase 1 (Homo sapiens, UniProt P11387)", "T"],
  ["O=C1NC(=O)c2c1c1c3cc(F)ccc3[nH]c1c1c2c2cc(F)ccc2n1C1OC(CO)C(F)(F)C(O)C1O (stereo not drawn)", "DNA topoisomerase 1 (Homo sapiens, UniProt P11387)", "T"],
  ["O=C1NC(=O)c2c1c1c3cc(F)c(F)cc3[nH]c1c1c2c2cc(F)c(F)cc2n1C1OC(CO)C(F)C(O)C1O (stereo not drawn)", "DNA topoisomerase 1 (Homo sapiens, UniProt P11387)", "F"],
  ["O=C1NC(=O)c2c1c1c3cc(F)ccc3[nH]c1c1c2c2cc(F)ccc2n1C1OC(CO)C(F)C(O)C1O (stereo not drawn)", "DNA topoisomerase 1 (Homo sapiens, UniProt P11387)", "T"],
  ["O=C1NC(=O)c2c1c1c3cc(F)c(F)cc3sc1c1c2c2cc(F)c(F)cc2n1C1OC(CF)C(O)C(O)C1O (stereo not drawn)", "DNA topoisomerase 1 (Homo sapiens, UniProt P11387)", "F"]
]}

* * *

target_under_test: DNA topoisomerase 1 (Homo sapiens)
Sequence (P11387 whole entry): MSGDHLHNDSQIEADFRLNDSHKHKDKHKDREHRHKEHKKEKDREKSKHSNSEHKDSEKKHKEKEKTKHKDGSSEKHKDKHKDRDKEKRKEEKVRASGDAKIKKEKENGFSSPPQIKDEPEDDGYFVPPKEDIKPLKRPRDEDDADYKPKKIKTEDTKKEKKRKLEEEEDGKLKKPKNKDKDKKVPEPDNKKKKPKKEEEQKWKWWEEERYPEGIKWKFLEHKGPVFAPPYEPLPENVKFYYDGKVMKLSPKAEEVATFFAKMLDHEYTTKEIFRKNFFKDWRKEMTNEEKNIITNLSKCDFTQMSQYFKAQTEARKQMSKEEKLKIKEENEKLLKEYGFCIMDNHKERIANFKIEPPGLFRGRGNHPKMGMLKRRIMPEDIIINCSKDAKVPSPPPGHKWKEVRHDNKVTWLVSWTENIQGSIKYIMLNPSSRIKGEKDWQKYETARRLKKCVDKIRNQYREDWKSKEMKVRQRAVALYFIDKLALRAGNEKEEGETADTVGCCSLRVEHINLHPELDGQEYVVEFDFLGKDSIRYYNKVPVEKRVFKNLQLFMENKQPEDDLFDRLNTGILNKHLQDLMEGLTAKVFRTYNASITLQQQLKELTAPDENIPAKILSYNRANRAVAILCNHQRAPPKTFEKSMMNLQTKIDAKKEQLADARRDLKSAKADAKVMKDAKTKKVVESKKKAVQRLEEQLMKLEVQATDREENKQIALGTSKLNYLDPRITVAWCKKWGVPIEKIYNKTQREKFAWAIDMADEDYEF
assay_summary: Topoisomerase I activity for single-strand breaks in the DNA substrate
pEC50: −log10 of the molar value.

{"columns": ["molecule", "pEC50"],
 "data": [
  ["O=C1NC(=O)c2c1c1c3cc(F)ccc3[nH]c1c1c2c2cc(F)ccc2n1C1OC(CO)C(O)C(O)C1O (centres undefined)", 6.62],
  ["O=C1NC(=O)c2c1c1c3cc(F)c(F)cc3[nH]c1c1c2c2cc(F)c(F)cc2n1C1OC(CF)C(O)C(O)C1O (centres undefined)", 5.52],
  ["O=C1NC(=O)c2c1c1c3cc(F)c(F)cc3sc1c1c2c2cc(F)c(F)cc2n1C1OC(CO)C(F)(F)C(O)C1O (centres undefined)", 6.30],
  ["O=C1NC(=O)c2c1c1c3cc(F)ccc3[nH]c1c1c2c2cc(F)ccc2n1C1OC(COF)C(F)C(O)C1O (centres undefined)", 6.39]
]}
